Data credit: ChEMBL document CHEMBL3425411

- Test system: MDA-MB-468
- assay overview: Cytotoxicity against human MDA-MB-468 cells assessed as growth inhibition after 24 to 72 hrs by MTT assay
- Format: functional, cell-based
# pIC50 annotations
Just the number, please; pIC50 means minus log10 of the concentration in mol/L.

Recorded pIC50, per entry:
smiles: COC(=O)c1cc2c3ccccc3[nH]c2c2cn(-c3ccc(OC)c(OC)c3)c[n+]12
quantitative result: 4.94
--
smiles: COC(=O)c1cc2c3ccccc3[nH]c2c2cn(C3CCCCC3)c[n+]12
quantitative result: 4.74

// switching to the query compound
Q: # returns recorded pIC50 (system: MDA-MB-468) for COC(=O)c1cc2c3ccccc3[nH]c2c2cn(-c3cccc(C(F)(F)F)c3)c[n+]12
Result: 4.98
